Experiment: Probe fluorescence ratio response to stearic acid relative to ADIFAB2
Format: binding
Conditions: response relative to ADIFAB2
metric name: DR/DR SA
Give bare numbers.

Past entries and their recorded results:
73W 74I (protein, listed as Rattus norvegicus, PEPTIDE (1)...(131) wild-type rat intestinal fatty acid binding protein) AFDGTWKVDRNENYEKFMEKMGINVVKRKLGAHDNLKLTITQEGNKFTVKESSNFRNIDVVFELGVDFAYSLWIGTELTGTWTMEGNKLVGKFKRVDNGKELIAVREISGNELIQTYTYEGVEAKRIFKKE = 0.423
14L 18L 31L 73G 117V 72A (protein, listed as Rattus norvegicus, PEPTIDE (1)...(131) wild-type rat intestinal fatty acid binding protein) AFDGTWKVDRNENLEKFLEKMGINVVKRKLLAHDNLKLTITQEGNKFTVKESSNFRNIDVVFELGVDFAYSAGDGTELTGTWTMEGNKLVGKFKRVDNGKELIAVREISGNELIQTVTYEGVEAKRIFKKE = 0.170
18V 31A 73F 72A (protein, listed as Rattus norvegicus, PEPTIDE (1)...(131) wild-type rat intestinal fatty acid binding protein) AFDGTWKVDRNENYEKFVEKMGINVVKRKLAAHDNLKLTITQEGNKFTVKESSNFRNIDVVFELGVDFAYSAFDGTELTGTWTMEGNKLVGKFKRVDNGKELIAVREISGNELIQTYTYEGVEAKRIFKKE = 0.375

Required: DR/DR SA, one value per molecule below.
1. 14Q 18S 73I 117W 72A (protein, listed as Rattus norvegicus, PEPTIDE (1)...(131) wild-type rat intestinal fatty acid binding protein) AFDGTWKVDRNENQEKFSEKMGINVVKRKLGAHDNLKLTITQEGNKFTVKESSNFRNIDVVFELGVDFAYSAIDGTELTGTWTMEGNKLVGKFKRVDNGKELIAVREISGNELIQTWTYEGVEAKRIFKKE
2. 62N 106F 117A 72A (protein, listed as Rattus norvegicus, PEPTIDE (1)...(131) wild-type rat intestinal fatty acid binding protein) AFDGTWKVDRNENYEKFMEKMGINVVKRKLGAHDNLKLTITQEGNKFTVKESSNFRNIDVVNELGVDFAYSAADGTELTGTWTMEGNKLVGKFKRVDNGKELIAVFEISGNELIQTATYEGVEAKRIFKKE

Return:
["−0.044", 0.490]
